Source of measurements: patent US12410160B2

# assay-system: UniProtKB P50053
# Sequence (P50053 whole entry): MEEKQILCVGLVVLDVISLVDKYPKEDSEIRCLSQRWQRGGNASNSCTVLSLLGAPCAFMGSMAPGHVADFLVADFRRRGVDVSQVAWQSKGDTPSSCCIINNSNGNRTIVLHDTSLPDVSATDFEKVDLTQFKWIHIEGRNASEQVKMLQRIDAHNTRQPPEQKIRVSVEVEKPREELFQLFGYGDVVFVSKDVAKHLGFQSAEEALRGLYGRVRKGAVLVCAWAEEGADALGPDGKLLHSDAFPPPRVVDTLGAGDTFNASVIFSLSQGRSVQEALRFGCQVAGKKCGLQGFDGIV
# assay-text: KHK Biochemical Assay (IC50), ADP-Glo, KHK-C
# condition-set: average of at least two separate assays
reported-property: pIC50
// pIC50 is dimensionless: -log10 of concentration (M)

Some entries whose results are on file:
>  <compound>
C[C@@H]1N(c2nc(-c3ccc4c(c3)CCNC43COC3)c3c(n2)C(F)(F)CC3)CC1(F)F

>  <pIC50>
8.66

$$$$
>  <compound>
NC1(c2ccc(-c3nc(N4CCC4C(F)F)nc4c3CCC4(F)F)cc2)COC1 (stereo not shown)

>  <pIC50>
8.74

$$$$
>  <compound>
C[C@H]1[C@H](O)CN1c1nc(-c2ccc3c(c2)[C@H](NS(C)(=O)=O)CO3)c2c(n1)C(F)(F)CC2 (single isomer, unassigned)

>  <pIC50>
8.46

$$$$
>  <compound>
C[C@H]1CCN1c1nc2c(c(-c3ccnc(OC(F)F)c3)n1)CCC2

>  <pIC50>
6.11

$$$$
>  <compound>
C[C@H]1CCN1c1nc2c(c(-c3ccc(CNS(C)(=O)=O)s3)n1)CCC2

>  <pIC50>
8.28

$$$$

Q. Item under review: C[C@H]1CCN1c1nc2c(c(-c3ccc4c(c3)[C@]3(C[C@@H]3C#N)C(=O)N4)n1)CCC2 (mixture of isomers) . Reported pIC50?
A. 6.93

Q. Item under review: C[C@H]1CCN1c1nc2c(c(-c3cccc(C(N)=O)c3)n1)C1CC1C2 (stereo partly shown) . Reported pIC50?
A. 6.51

Q. Item under review: C[C@H]1[C@H](O)CN1c1nc(-c2ccc3c(c2)OCC32NC(=O)OC2(C)C)c2c(n1)C(F)(F)CC2 (stereo partly shown) . Reported pIC50?
A. 8.59

Q. Item under review: CN1C(=O)N[C@]2(CCc3cc(-c4nc(N5CC[C@@H]5CF)nc5c4CCC5(F)F)ccc32)C1=O . Reported pIC50?
A. 9.70

Q. Item under review: C[C@H](NS(C)(=O)=O)c1cccc(-c2nc(N3CC[C@@H]3C)nc3c2CCC3(F)F)c1 . Reported pIC50?
A. 7.97

Q. Item under review: CS(=O)(=O)N[C@H]1COc2cc(-c3nc(N4CCC4C(F)F)nc4c3CCC4(F)F)ccc21 (stereo partly shown) . Reported pIC50?
A. 8.96

Q. Item under review: C[C@H]1CCN1c1nc2c(c(-c3ccc4c(c3)NCCNC4=O)n1)CCC2 . Reported pIC50?
A. 7.97

Q. Item under review: C[C@H]1[C@H](O)CN1c1nc(-c2ccc3c(c2)CCNC3)c2c(n1)C(F)(F)CC2 . Reported pIC50?
A. 8.57

Q. Item under review: C[C@H]1CCN1c1nc2c(c(-c3cccc([C@H]4C[C@H](C(=O)O)C4)c3)n1)CCC2 (single isomer, unassigned) . Reported pIC50?
A. 8.15

Q. Item under review: C[C@H]1[C@H](O)CN1c1nc(-c2ccc(C(N)CC#N)cc2)c2c(n1)C(F)(F)CC2 (stereo partly shown) . Reported pIC50?
A. 8.48

Q. Item under review: CS(=O)(=O)N[C@H]1COc2cc(-c3nc(N4CC[C@@H]4C(F)F)nc4c3CCC4(F)F)ccc21 . Reported pIC50?
A. 9.00
